biological target: Jak2 (Homo sapiens)
Sequence (O60674 whole entry, species assumed): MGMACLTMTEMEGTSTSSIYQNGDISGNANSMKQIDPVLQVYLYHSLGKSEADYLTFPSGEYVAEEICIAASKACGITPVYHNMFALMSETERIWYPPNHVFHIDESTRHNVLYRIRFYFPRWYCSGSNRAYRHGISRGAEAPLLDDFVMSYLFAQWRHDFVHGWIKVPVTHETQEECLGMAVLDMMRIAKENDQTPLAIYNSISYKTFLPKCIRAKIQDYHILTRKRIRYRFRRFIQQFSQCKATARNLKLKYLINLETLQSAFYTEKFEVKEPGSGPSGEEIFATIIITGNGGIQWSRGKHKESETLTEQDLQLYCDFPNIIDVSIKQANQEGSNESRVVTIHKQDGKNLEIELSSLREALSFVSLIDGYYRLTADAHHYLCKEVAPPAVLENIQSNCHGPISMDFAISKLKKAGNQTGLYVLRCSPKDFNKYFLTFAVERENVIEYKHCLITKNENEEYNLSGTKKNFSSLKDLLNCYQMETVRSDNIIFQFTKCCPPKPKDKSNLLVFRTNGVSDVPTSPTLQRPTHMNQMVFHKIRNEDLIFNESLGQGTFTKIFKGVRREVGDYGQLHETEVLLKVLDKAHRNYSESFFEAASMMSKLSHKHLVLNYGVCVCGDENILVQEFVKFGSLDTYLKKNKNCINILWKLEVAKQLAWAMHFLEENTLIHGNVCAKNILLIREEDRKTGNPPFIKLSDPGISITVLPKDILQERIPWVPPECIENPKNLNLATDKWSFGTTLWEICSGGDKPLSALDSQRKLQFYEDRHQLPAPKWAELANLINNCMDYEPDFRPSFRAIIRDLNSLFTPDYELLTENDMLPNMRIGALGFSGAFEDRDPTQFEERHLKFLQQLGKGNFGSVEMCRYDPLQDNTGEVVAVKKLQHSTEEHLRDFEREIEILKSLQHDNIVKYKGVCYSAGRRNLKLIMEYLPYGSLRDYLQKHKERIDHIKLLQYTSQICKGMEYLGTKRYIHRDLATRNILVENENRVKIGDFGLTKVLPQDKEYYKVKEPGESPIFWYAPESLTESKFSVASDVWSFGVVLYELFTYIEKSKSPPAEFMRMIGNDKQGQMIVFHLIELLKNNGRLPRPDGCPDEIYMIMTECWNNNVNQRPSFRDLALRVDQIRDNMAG
pIC50: −log10 of the molar value.
Listing of recorded pIC50 by entry.

>  <compound>
NC(=O)c1cnc(Nc2ccc3c(c2)OC[C@H]2CN(S(=O)(=O)C4CCOCC4)CCN32)nc1NC1CC1 [Compound C13R]

>  <pIC50>
> 8.00

$$$$
>  <compound>
NC(=O)c1cnc(Nc2ccc3c(c2)OC[C@H]2CN(C4CCOCC4)CCN32)nc1NC1CC1 [Compound C4R]

>  <pIC50>
> 7.70

$$$$
>  <compound>
NC(=O)c1cnc(Nc2ccc3c(c2)OC[C@H]2CN(S(=O)(=O)c4ccccc4)CCN32)nc1NC1CC1 [Compound C9R]

>  <pIC50>
> 7.30

$$$$
>  <compound>
CC(=O)N1CCN2c3ccc(Nc4ncc(C(N)=O)c(NC5CC5)n4)cc3OC[C@H]2C1 [Compound C3R]

>  <pIC50>
> 8.00

$$$$
>  <compound>
NC(=O)c1cnc(Nc2ccc3c(c2)OC[C@H]2CN(S(N)(=O)=O)CCN32)nc1NC1CC1 [Compound C16R]

>  <pIC50>
> 7.30

$$$$
>  <compound>
CN(C)S(=O)(=O)N1CCN2c3ccc(Nc4ncc(C(N)=O)c(NC5CC5)n4)cc3OC[C@H]2C1 [Compound C14R]

>  <pIC50>
> 8.00

$$$$
>  <compound>
C=CS(=O)(=O)N1CCN2c3ccc(Nc4ncc(C(N)=O)c(NC5CC5)n4)cc3OC[C@H]2C1 [Compound C15R]

>  <pIC50>
> 7.30

$$$$
